System: HEK-293T
Assay: Multiplex assay against HEK293T
Type: toxicity, cell-based
Settings: human, 24 h, 10 µM, compound concentration 10 uM, replicate 1
The compounds listed here are annotated with their Population Normal (%).
measure: Population Normal (%)

# compound, measured_result
data = [
    ("O=C(O)c1cc2ccccc2c(Cc2c(O)c(C(=O)O)cc3ccccc23)c1O", 94),
    ("CNC[C@H](O)c1ccc(O)c(O)c1 [EPINEPHRINE]", 91),
    ("COc1ccc2c(c1)C(C(=O)N(Cc1ccc(N(C)C)cc1)c1ccc(C(C)C)cc1)CCC2.Cl (stereo not given)", 89),
    ("Cc1ccc(-c2ccc(F)cc2COc2ccc(CCC(=O)O)cc2)cc1", 94),
    ("CC1(COc2ccc3c(c2)ncn3-c2ccc3cccc(N4CCC(N)CC4)c3n2)COC1", 43),
]

Taken from ChEMBL document CHEMBL5058577.
